- target.or.system: T1, 4H796-bH
- T1 chain: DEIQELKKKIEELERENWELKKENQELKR
- assay.info: two-hybrid library CCNG1;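 note: natural log of median RNA to DNA barcode read ratio; higher means stronger binding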
property.label: interaction score

binder="DEIQELKKENEELKRENWELKKEIQELKR [4H730-bH]" property_label="interaction score" recorded_result=-0.301
binder="DKIQELKKKIEELERKIWELKKENQELER [4H2859-bH]" property_label="interaction score" recorded_result=-0.548
binder="DEIQELEKEIEELERKNWELEKKNQELKR [4H56-bH]" property_label="interaction score" recorded_result=0.682
binder="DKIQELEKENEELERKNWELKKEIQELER [4H2233-bH]" property_label="interaction score" recorded_result=-0.815
binder="DEIQELEKKIEELEREIWELEKKNQELKR [4H264-bH]" property_label="interaction score" recorded_result=-0.303
binder="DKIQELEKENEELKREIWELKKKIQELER [4H2253-bH]" property_label="interaction score" recorded_result=-0.124

Proceeding to the next binder to report its interaction score.
Per the records, this binder ( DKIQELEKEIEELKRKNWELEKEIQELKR [4H2162-bH] ) has interaction score equal to -0.188
